# Test system: MDA-MB-435
# assay_text: NCI tumour cell line growth inhibition, 48 h
observed_property: TGI

Look over these answered cases.
CC(C)C1C(=O)N2CCCC2C2(O)OC(NC(=O)C3C=C4c5cccc6[nH]cc(c56)CC4N(C)C3)(C(C)C)C(=O)N12 (stereo not drawn)	> 100 µM
O=S(=O)(NCCNc1cc(-c2cn(-c3ccccc3)nc2-c2cccc(O)c2)ccn1)c1ccc(C(F)(F)F)cc1	7.63 µM

Here is another compound to look at.
Tell me reported TGI for CCOC(=O)Cc1ccc(Nc2nc3cc(C(F)(F)F)ccc3nc2C(=O)OCC)cc1 , tested with MDA-MB-435.
> 100 µM

====

# System: SK-MEL-28 melanoma
# assay_text: NCI tumour cell line growth inhibition, 48 h
observed_property: TGI

Look over these answered cases.
OCCN1CCN(CCO)Cc2ccccc2OCCOc2ccccc2C1	> 100 µM
Cc1[nH]c2c(C)ccc(C)c2c1CC(=O)O	> 100 µM
O=C1O/C(=C\c2ccc(O)c(Br)c2)C(c2ccc(O)cc2)=C1Cl	> 100 µM

// returns reported TGI for input CN(C)CCOc1cc2c(c3ccccc13)-c1ccccc1C2=O
3.27 µM

// returns reported TGI for input COC(=O)C1=CC(O)CCC1c1ccc(OC)cc1 (stereo not drawn)
> 100 µM

// returns reported TGI for input Cc1cc(S(=O)(=O)Nc2nc(N)n(-c3cnc4ccccc4n3)n2)c(S)cc1Cl
> 100 µM

// returns reported TGI for input COc1ccc(C)c2c1N[C@](C)([C@]1(C)Nc3c(OC)ccc(C)c3C1=O)C2=O
> 100 µM

// returns reported TGI for input CC(N)Cc1cccc(C(F)(F)F)c1 (stereo not drawn)
> 100 µM

// returns reported TGI for input O=C1c2ccccc2C(=O)N1/N=C\c1ccc(Br)cc1
> 100 µM

====

# Test system: HS 578T breast
# assay_text: NCI tumour cell line growth inhibition, 48 h
observed_property: TGI

C[C@H]1CCC/C=C/[C@@H]2C[C@H](O)C[C@H]2[C@H](O)[C@H](S(=O)c2ccc(O)cc2)CC(=O)O1 (stereo partly specified)	> 100 µM
COc1ccc(C2Oc3c(cccc3OC)C=C2[N+](=O)[O-])cc1OC (stereo unspecified)	> 100 µM
CN(C(=O)OC(C)(C)C)[C@H]1CCCC[C@H]1N1CCCC1	> 100 µM
COC(=O)/C=C\c1ccc2c(c1)CC1(C2)Cc2ccc(/C=C/C(=O)OC)cc2C1 (stereo unspecified)	> 31.6 µM
O=[N+]([O-])C(/C(Cl)=C(/Cl)N1CCCCC1)=C1\NCCO1	> 100 µM

// returns reported TGI for input CC(C)C1C(=O)N2CCCC2C2(O)OC(NC(=O)C3C=C4c5cccc6[nH]cc(c56)CC4N(C)C3)(C(C)C)C(=O)N12 (stereo unspecified)
> 100 µM

// returns reported TGI for input O=C(O)CN1CCNCCN(CC(=O)O)CC1
> 100 µM

// returns reported TGI for input Cn1c(=O)n(-c2c3ccccc3c(Cl)c3ccccc23)n(C(C)(C)C)c1=O
> 100 µM

// returns reported TGI for input COC1Cc2c(C)c(OC(C)=O)c3cccnc3c2O1 (stereo unspecified)
> 100 µM

// returns reported TGI for input Cc1cc(Cl)nc(NC(=O)CSc2ccc(Cl)cc2)n1
> 100 µM

// returns reported TGI for input CN1CCN(C(=O)c2ccc(NC(=O)Nc3ccc(N(C)c4ccnc(Nc5ccc(CS(C)(=O)=O)cc5)n4)cc3)cc2)CC1
> 22.1 µM

====

# System: HL-60(TB) leukemia
# assay_text: NCI tumour cell line growth inhibition, 48 h
observed_property: TGI (µM)
Please respond with the number in µM and leave the unit unwritten.

Look over these answered cases.
COc1ccc(-c2cc(-c3ccc(Nc4nc(Nc5ccc(Cl)cc5)nc(Nc5ccc(Cl)cc5)n4)cc3)no2)cc1	12.1
C/C(=C\c1ccn(-c2ccc(N)c(C(F)(F)F)c2)n1)[C@@H]1C[C@@H]2O[C@]2(C)CCC[C@H](C)[C@H](O)[C@@H](C)C(=O)C(C)(C)[C@@H](O)CC(=O)O1	0.203

// returns reported TGI for input CC(C)(C)CN1[C@@H]2CCCC[C@H]2N(CC(C)(C)C)P1(=O)Cc1ccccc1
26.4

// returns reported TGI for input C=C(C)C1CC=C(C(=O)O)CC1 (centres undefined)
2630

// returns reported TGI for input COc1cc2c(c(OC)c1OC)-c1ccc([O-])c(=O)cc1[C@@H](NC(C)=O)CC2.COc1cc2c(c(OC)c1OC)-c1ccc([O-])c(=O)cc1[C@@H](NC(C)=O)CC2.[Cu+2]
4.82

// returns reported TGI for input Nc1ncc(-c2cnn(C3CCNCC3)c2)cc1-c1nc2ccccc2o1
1.66

// returns reported TGI for input CCCCCCCC1c2cc3[nH]c(cc4nc(cc5[nH]c(cc(n2)[C@@]1(C)CC(=O)N(C)C)c(C)c5CCC(=O)O)C(CCC(=O)O)=C4C)cc3C (some centres undefined)
45.8

====

Reported TGI by item:
# Test system: SR leukemia
# assay_text: NCI tumour cell line growth inhibition, 48 h

Look over these answered cases.
O=C1c2ccccc2C(=O)N1/N=C\c1ccc(Br)cc1	> 100 µM
COc1ccc(C(=O)/C=C/c2cc3ccccc3[nH]c2=O)cc1	> 100 µM
Cc1cc(N(CCC#N)CCC#N)ccc1/C=C1/CN(N2C(=O)/C(=C/c3ccc(N(CCC#N)CCC#N)cc3C)N=C2c2ccccc2)C(c2ccccc2)=N1	> 100 µM

Here is another compound to look at.
// returns reported TGI for input CSc1nc(NC2OCC(OC(C)=O)C(OC(C)=O)C2OC(C)=O)c(N=CC=Nc2c(NC3OCC(OC(C)=O)C(OC(C)=O)C3OC(C)=O)nc(SC)n(C)c2=O)c(=O)n1C (configuration not stated)
> 100 µM

====

# Test system: T-47D breast
# assay_text: NCI tumour cell line growth inhibition, 48 h
observed_property: TGI

// returns reported TGI for input COC(C)(C)C(O)C(O)C[C@H](C)C1CC=C2C1(C)CCC1[C@@]3(C)CCC(OC(C)=O)C(C)(C)C3CC(OC3OC(COC(C)=O)C(O)C(O)C3O)[C@@]21C (stereo not given in full)
8.73 µM

====

# Test system: HS 578T breast
# assay_text: NCI tumour cell line growth inhibition, 48 h
Reported TGI by item:

Look over these answered cases.
O=c1oc2ccc(Cl)cc2c(=O)n1-c1ccc(Cl)cc1F	1.97 µM
CC(=O)c1ccc(-c2oc(-c3ccccc3)cc2-c2ccc3c(c2)OCO3)s1	> 100 µM
CCOC(=O)/C(C#N)=C(/NS(=O)(=O)c1cc(C)c(Cl)cc1[S-])[n+]1ccc(N(C)C)cc1	> 100 µM
CCOC(=O)Cn1c(=O)c2nc(SC)sc2n(-c2ccc(C)cc2)c1=S	> 66.5 µM
Nc1nc(N)c2nc(CNc3ccc(C(=O)CC(CCC(=O)O)C(=O)O)cc3)cnc2n1 (centres undefined)	> 100 µM

Here is another compound to look at.
Tell me reported TGI for CCOC(=O)c1ccc2c(c1)nc1n2C(c2c(F)cccc2F)SC1 (centres undefined) , tested with HS 578T breast.
> 100 µM

====

# System: UACC-257 melanoma
# assay_text: NCI tumour cell line growth inhibition, 48 h
Reported TGI by item:

Look over these answered cases.
C/C(=C\c1ccn(-c2ccc(N)c(C(F)(F)F)c2)n1)[C@@H]1C[C@@H]2O[C@]2(C)CCC[C@H](C)[C@H](O)[C@@H](C)C(=O)C(C)(C)[C@@H](O)CC(=O)O1	> 32.5 µM
O=C(NO)c1cccc(OCc2ccc(Br)cc2)c1	> 100 µM

Here is another compound to look at.
// returns reported TGI for input O=C1CC2[C@@H](N3CCCC3)CCC(N1Cc1ccccc1)C2(O)O (stereo partly drawn)
> 100 µM

====

# Tested on: HCT-116 colon
# assay_text: NCI tumour cell line growth inhibition, 48 h
Assign class by TGI: not lower than 50 µM means Fulfilled; lower than 50 µM means Not fulfilled.

COC(=O)[C@H](CCSC)NC(=O)c1ccc(CNC(=O)/C=C/c2cccc(Oc3ccccc3)c2)cc1	Fulfilled
CS(=O)(=O)c1nc(N)nc2nc[nH]c12	Fulfilled
C=C(C)C(=O)NC(N)=NC#N	Fulfilled
O=C(NO)c1cccc(OCc2ccc(Br)cc2)c1	Not fulfilled

In plain terms: is recorded TGI at least 50 µM for C1COC2SC3=C(SC(=C4SC5=C(SCCS5)S4)S3)SC2O1 (stereo not given) ?
Fulfilled

In plain terms: is recorded TGI at least 50 µM for CCC[CH2][Sn]1([CH2]CCC)[O]C(c2ccccn2)S(=O)(=O)[O]1 (stereo not given) ?
Not fulfilled

====

# Tested on: A549 NSCLC
# assay_text: NCI tumour cell line growth inhibition, 48 h
observed_property: TGI

// returns reported TGI for input CC(C)=CCNc1ncnc2c1ncn2CCC(=O)OC(C)(C)C
> 100 µM

// returns reported TGI for input COc1cc2c(c(OC)c1OC)-c1ccc([O-])c(=O)cc1[C@@H](NC(C)=O)CC2.COc1cc2c(c(OC)c1OC)-c1ccc([O-])c(=O)cc1[C@@H](NC(C)=O)CC2.[Cu+2]
> 100 µM
